Target: HLA-A*23:01
Test: IEDB peptide-MHC binding, purified MHC/direct/fluorescence; filed as Kd, often an IC50 or EC50 that approximates it; bounds were set here for any values at or beyond the usual limits of such assays
Details: source organism: Choclo virus
pKd: −log10 of the molar value.
measurement-name: pKd

Entry under review: `LPSSSSYSY` . Reported pKd?
≤ 4.70

###

Biological target: HLA-B*15:17
Assay: IEDB peptide-MHC binding, purified MHC/competitive/fluorescence; filed as Kd, often an IC50 or EC50 that approximates it; bounds were set here for any values at or beyond the usual limits of such assays
Details: source organism: Vibrio parahaemolyticus AQ3810
measurement-name: Kd

Entry under review: `HFIYHKREK` . Reported Kd?
≥ 20 µM
